measured on: human GLP-1 receptor (human, UniProt P43220 24-463)
run description: cell-based or functional assay
Starred links: 1 amine or outer side, 2 acyl side, 3 side chain; linkers in the order of their positions; H or OH if unused. Non-standard residues stand in square brackets, D forms with d. Groups on a side chain read outwards from the residue. No end group written: not given here. *: point of attachment. C20 diacid = O=C(O)CCCCCCCCCCCCCCCCCCC(=O)*; C18 diacid = O=C(O)CCCCCCCCCCCCCCCCC(=O)*; γGlu = O=C(O)[C@H](CCC(=O)[*:2])N[*:1]; εLys = N[C@@H](CCCCN[*:1])C(=O)[*:2]; AEEA = NCCOCCOCC(=O)O; Aib = CC(C)(N)C(=O)O

binder: YXEGTFTSDYSIXLEKQAQXAFVEWLIKGGPSSGASLRHYYNRXTRQRY (Aib at 2, 13, 20, 44; K28 side chain: C20DA-gGlu-gGlu-gGlu-gGlu-gGlu-gGlu-eLys; C-terminal NH2) [Compound 68]
EC50, CreLuc assay, 100% hP / nM: 2.19
//
binder: YXEGTFTSDYSIXLEKQAQXAFVEWLIKGGPSSGQSLRHYYNWLTRQRY (Aib at 2, 13, 20; K28 side chain: C20DA-gGlu-gGlu-gGlu-gGlu-gGlu-gGlu-eLys; C-terminal NH2) [Compound 84]
EC50, CreLuc assay, 100% hP / nM: 2.63
//
binder: Y[Aib]EGTFTSDYSI[Aib]LEKQAQ[Aib]AFVQWLIK([AEEA-AEEA-γGlu-γGlu-γGlu-γGlu-C20 diacid])GGPEEPASLRHYYNWLTRQRY-NH2 (also: TFA salt) [Compound 77]
EC50, CreLuc assay, 100% hP / nM: 16.2
//
binder: YXEGTFTSDYSIXLEKQAQXAFVEWLIKGGPSSYESLRHYYNWLTRQRY (Aib at 2, 13, 20; K28 side chain: C20DA-gGlu-gGlu-gGlu-gGlu-gGlu-gGlu-eLys; C-terminal NH2) [Compound 50]
EC50, CreLuc assay, 100% hP / nM: 3.75
//
binder: YXEGTFTSDYSIXLEKQAQXAFVEWLIKGGPSSGASXRHYXNRXTRQRY (Aib at 2, 13, 20, 37, 41, 44; K28 side chain: C20DA-gGlu-gGlu-gGlu-gGlu-gGlu-gGlu-eLys; C-terminal NH2) [Compound 4]
EC50, CreLuc assay, 100% hP / nM: 1.74
//
binder: YXEGTFTSDYSIXLEKQAQXAFVQWLIKGGPRYYASLRHYYNWLTRQRY (Aib at 2, 13, 20; K28 side chain: C20DA-gGlu-gGlu-gGlu-gGlu-gGlu-gGlu-eLys; C-terminal NH2) [Compound 14]
EC50, CreLuc assay, 100% hP / nM: 7.13
//
binder: YXEGTFTSDYSIXLEKQAQXAFVEWLIKGGPSSGASLRHYXNRXTRQRY (Aib at 2, 13, 20, 41, 44; K28 side chain: C20DA-gGlu-gGlu-gGlu-gGlu-gGlu-gGlu-eLys; C-terminal NH2) [Compound 18]
EC50, CreLuc assay, 100% hP / nM: 1.94
//
binder: YXEGTFTSDYSIXLEKQAQXAFVEWLIKGGPSSGASXRHYYNWLTRQRY (Aib at 2, 13, 20, 37; NMeR 48; K28 side chain: C20DA-gGlu-gGlu-gGlu-gGlu-gGlu-gGlu-eLys; C-terminal NH2) [Compound 39]
EC50, CreLuc assay, 100% hP / nM: 0.82
//
binder: YXEGTFTSDYSIXLEEQAQXAFVEWLIKGGPSSGQSLRHYYNWLTRQRY (Aib at 2, 13, 20; K28 side chain: C20DA-gGlu-gGlu-gGlu-gGlu-gGlu-gGlu-eLys; C-terminal NH2) [Compound 31]
EC50, CreLuc assay, 100% hP / nM: 2.94
//
binder: YXEGTFTSDYSIXLEKQAQXAFVQWLIKGGPSSYVSLRHYYNWLTRQRY (Aib at 2, 13, 20; K28 side chain: C20DA-gGlu-gGlu-gGlu-gGlu-gGlu-gGlu-eLys; C-terminal NH2) [Compound 15]
EC50, CreLuc assay, 100% hP / nM: 4.11
//
binder: YXEGTFTSDYSIXLEKQAQXAFVEWLIKGGPSSYVSLRHYYNWLTRQRY (Aib at 2, 13, 20; K28 side chain: C20DA-gGlu-gGlu-gGlu-gGlu-gGlu-gGlu-eLys; C-terminal NH2) [Compound 40]
EC50, CreLuc assay, 100% hP / nM: 9.04
//
binder: YXEGTFTSDYSIXLEKQAQXAFVQWLIKGGQRSYASLRHYYNWLTRQRY (Aib at 2, 13, 20; K28 side chain: C20DA-gGlu-gGlu-gGlu-gGlu-gGlu-gGlu-eLys; C-terminal NH2) [Compound 3]
EC50, CreLuc assay, 100% hP / nM: 14.4
//
binder: Y[Aib]EGTFTSDYSI[Aib]LEKQAQ[Aib]AFVQWLIK([AEEA-AEEA-Glu-Glu-Glu-Glu-C18 diacid])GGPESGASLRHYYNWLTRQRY-NH2 (also: TFA salt) [Compound 52]
EC50, CreLuc assay, 100% hP / nM: 3.17
//
binder: YXEGTFTSDYSIXLAAAAQXAFVEWLIKGGPSSGASLRHYYNWLTRQRY (Aib at 2, 13, 20; K28 side chain: C20DA-gGlu-gGlu-gGlu-gGlu-gGlu-gGlu-eLys; C-terminal NH2) [Compound 20]
EC50, CreLuc assay, 100% hP / nM: 24.3
//
binder: YXEGTFTSDYSIXLEKQAQXAFVEWLIKGGPSSGASLRHYYNWLTRQRY (Aib at 2, 13, 20; DHis 39; DArg 46; DTyr 49; K28 side chain: C20DA-gGlu-gGlu-gGlu-gGlu-gGlu-gGlu-eLys; C-terminal NH2) [Compound 21]
EC50, CreLuc assay, 100% hP / nM: 1.66
//
binder: Y[Aib]EGTFTSDYSI[Aib]LEEQAQ[Aib]AFVQWLIK([εLys-γGlu-γGlu-γGlu-γGlu-γGlu-C20 diacid])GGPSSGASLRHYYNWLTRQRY-NH2 (also: TFA salt) [Compound 34]
EC50, CreLuc assay, 100% hP / nM: 1.39
//
binder: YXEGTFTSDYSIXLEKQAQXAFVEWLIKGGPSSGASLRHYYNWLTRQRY (Aib at 2, 13, 20; DLeu 37; DHis 39; DArg 46; DTyr 49; K28 side chain: C20DA-gGlu-gGlu-gGlu-gGlu-gGlu-gGlu-eLys; C-terminal NH2) [Compound 5]
EC50, CreLuc assay, 100% hP / nM: 1.43
//
binder: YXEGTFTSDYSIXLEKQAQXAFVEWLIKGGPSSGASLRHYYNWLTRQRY (Aib at 2, 13, 20; NMeQ 47; K28 side chain: C20DA-gGlu-gGlu-gGlu-gGlu-gGlu-gGlu-eLys; C-terminal NH2) [Compound 85]
EC50, CreLuc assay, 100% hP / nM: 2.75
//
binder: Y[Aib]EGTFTSDYSI[Aib]LEKQAQ[Aib]AFVQWLIKGGPESGASLRHYYNWLTRQRY-NH2 (not fully specified (residue 28); also: TFA salt) [Compound 55]
EC50, CreLuc assay, 100% hP / nM: 4.17
//
binder: YXEGTFTSDYSIXLEKQAQXAFVEWLIKGGPSEPQSIRHYYNWLTRQRY (Aib at 2, 13, 20; K28 side chain: C20DA-gGlu-gGlu-gGlu-gGlu-gGlu-gGlu-eLys; C-terminal NH2) [Compound 48]
EC50, CreLuc assay, 100% hP / nM: 3.1
//
binder: YXEGTFTSDYSIXLEKQAQXAFVEWLIKGGPRYYASLRHYYNWLTRQRY (Aib at 2, 13, 20; K28 side chain: C20DA-gGlu-gGlu-gGlu-gGlu-gGlu-gGlu-eLys; C-terminal NH2) [Compound 62]
EC50, CreLuc assay, 100% hP / nM: 9.23
